system: UO-31; assay: NCI tumour cell line growth inhibition, 48 h
Active and inactive are the calls of the source. Cut-off read from the data, not from the text of the source: active = GI50 up to about 1.1 µM and inactive = higher.
Known GI50 of a selection of compounds
measurement.label: GI50

INSERT INTO measurements (compound, result_value) VALUES
  ('CC1CCC23COC(=O)C2C(O)CCC3C1(C)CC(O)c1ccoc1 (stereo not drawn)', '> 100 µM (inactive)'),
  ('O=C(/C=C/c1ccccc1F)c1ccc(Cl)c(Cl)c1', '40.9 µM (inactive)'),
  ('c1ccc(C2=NN(c3ccccc3)C3(S2)SC(c2ccccc2)(c2ccccc2)c2ccccc23)cc1 (stereo not drawn)', '> 100 µM (inactive)'),
  ('CCOC(=O)C1Cc2c(cc3c4c(cccc24)N(C(C)=O)C3)N(C)C1 (stereo not drawn)', '1.07 µM (active)'),
  ('CN(C)C(=C1c2cc([N+](=O)[O-])ccc2-c2ccc([N+](=O)[O-])cc21)N(C)C', '56.2 µM (inactive)'),
  ('O=C1NC(Nc2ccccc2)=N/C1=C\c1c(Cl)cccc1Cl', '4.42 µM (inactive)'),
  ('N=C(N)SCCCN', '17.7 µM (inactive)'),
  ('C/C=C(/CBr)CCC(Br)C(C)(C)Cl.C/C=C(\CBr)CCC(Br)C(C)(C)Cl (stereo not drawn)', '> 10 µM (inactive)'),
  ('O=C(NC(Cc1ccc(I)cc1)C(=O)O)c1ccc(Br)cc1 (stereo not drawn)', '> 100 µM (inactive)'),
  ('O=C(CCCN1CC=C(n2c(=O)[nH]c3ccccc32)CC1)c1cccs1', '> 100 µM (inactive)'),
  ('COC(=O)[C@H]1C=C[C@H](OC2OC(COC(C)=O)C(OC(C)=O)C(OC(C)=O)C2OC(C)=O)n2c(=O)n(-c3ccccc3)c(=O)n21 (stereo partly drawn)', '2.04 µM (inactive)'),
  ('CN(/N=C(\C(=O)O)c1ccccc1)C1=NCCN1', '> 100 µM (inactive)'),
  ('COC(=O)c1cccc(OC)c1C#Cc1c(OC)cccc1OC', '> 100 µM (inactive)');

* * *

test system: RPMI-8226; assay: NCI tumour cell line growth inhibition, 48 h
Activity calls are given as the source filed them. No stated cut-off is given here; in the data, active = GI50 up to about 1.1 µM and inactive = higher.
Outcome codes: yes (1) = active, no (0) = inactive

INSERT INTO results (compound, assigned_label) VALUES
  ('O=c1c2ccccc2nc2[nH][nH]c(=S)n12', 'no (0)'),
  ('Oc1ccc(Nc2nc(Cl)c3nc[nH]c3n2)cc1', 'no (0)'),
  ('COc1cc(C2c3cc4c(cc3[C@@H](N(C)C)[C@H]3COC(=O)C23)OCO4)cc(OC)c1O (some centres not stated)', 'no (0)'),
  ('O=c1oc2ccc([N+](=O)[O-])cc2c(Nc2ccc3c(c2)Sc2ccccc2O3)c1[N+](=O)[O-]', 'no (0)'),
  ('Oc1c(C(O)(c2ccccc2)c2ccc3ccccc3c2O)ccc2ccccc12', 'no (0)'),
  ('c1ccc2c(c1)CCc1c(-c3ccncc3)n[nH]c1-2', 'no (0)'),
  ('O=C(NNC(=O)c1ccncc1)C(=O)Nc1cc(Cl)c(Cl)cc1Cl', 'no (0)'),
  ('c1ccc(/C(=N/Nc2ccncn2)c2ccccn2)cc1', 'no (0)'),
  ('O=C1/C(=C/c2ccccc2O)N=C(c2ccccc2)N1C1Nc2cc3c(cc2S1)NC(N1C(=O)/C(=C/c2ccccc2O)N=C1c1ccccc1)S3 (configuration not stated)', 'no (0)'),
  ('COc1cc(OC)c2nccc(NCCCN(C)C)c2c1[N+](=O)[O-]', 'no (0)'),
  ('CN1CCN(CN2C(=O)C3C4C=CC(C3C2=O)C2C(=O)N(CN3CCN(C)CC3)C(=O)C42)CC1 (configuration not stated)', 'no (0)'),
  ('NC(=O)c1ncn(C2OC(CO)C(O)C2O)c1O (configuration not stated)', 'no (0)'),
  ('COc1ccc(Nc2c[nH]c(=O)[nH]c2=O)cc1', 'no (0)'),
  ('CC1=C2C(=O)c3ccccc3C2=C(C)S(=O)(=O)O1', 'no (0)'),
  ('O=C1CC(=O)NC(NN2C(=O)CSC2c2ccc(Cl)cc2)=N1 (configuration not stated)', 'no (0)'),
  ('Cc1nc2nc3c(ncn3COCCO)c(O)n2c1C(c1ccccc1)(c1ccccc1)c1ccccc1', 'no (0)'),
  ('CC(=O)Nc1ccc(S(=O)(=O)/N=c2/sc(S(N)(=O)=O)nn2C)cc1', 'no (0)'),
  ('COc1cc2c(cc1OC)C(=O)/C(=C/c1ccc([N+](=O)[O-])cc1)CC2', 'no (0)'),
  ('O=c1[nH]/c(=C/c2ccc(OCc3ccccc3)cn2)c(=O)[nH]/c1=C/c1ccc(F)cc1', 'yes (1)'),
  ('N#Cc1ccccc1NC(=O)C(=O)C(C(=O)c1ccccc1F)C1OC(=O)c2ccccc21 (configuration not stated)', 'no (0)'),
  ('Cc1ccc2c(c1)NC(=O)CCSSCCC(=O)N2', 'no (0)'),
  ('Nc1ccc(-c2nc3ccccc3s2)cc1CO', 'no (0)'),
  ('CC(C)=CCC[C@@H](C)C1=C(O)C(=O)C(C)=C(N[C@H](C)c2ccccc2)C1=O', 'no (0)'),
  ('COc1ccc(OC)c2c1C(=O)C1CC1(Br)C2=O (configuration not stated)', 'no (0)'),
  ('O=C(CC(=O)Nc1ccccc1)NNC(Sc1ccccc1)c1cc(/N=N/c2ccc(Br)cc2)ccc1O (configuration not stated)', 'no (0)'),
  ('C=CCc1ccccc1C1CC2(C(=O)OC)OC1C(C(=O)OC)=C2C(=O)OC (configuration not stated)', 'no (0)'),
  ('COc1cc(C2Oc3cc(-c4oc5cc(O)cc(O)c5c(=O)c4O)ccc3OC2CO)ccc1O (configuration not stated) [DEHYDROSILYLBIN]', 'no (0)'),
  ('O=c1c(=O)c2cscc2c1=O', 'no (0)'),
  ('CC(C)(C)c1ccc(C(O)(c2ccc(C(C)(C)C)cc2)c2ccc(C(C)(C)C)cc2)cc1', 'no (0)'),
  ('COc1cc(C2c3cc4c(cc3[C@@H](Nc3ccc([N+](=O)[O-])cc3)C3COC(=O)[C@H]23)OCO4)cc(OC)c1O (some centres not stated)', 'yes (1)'),
  ('CCOC(=O)c1cc2c(OCc3ccccc3)c(OC)cc3c2c(n1)N(c1ccc(OC)cc1)C(C)C3 (configuration not stated)', 'no (0)'),
  ('OC1(c2ccccc2)OC(C#Cc2ccccc2)(c2ccccc2)c2ccccc21 (configuration not stated)', 'no (0)');
